Where these numbers come from: the NIST ThermoML archive (doi:10.1016/j.jct.2015.02.023)

assay: activity coefficient (dimensionless); of the first substance listed, at infinite dilution; xn = mol fraction of the nth substance listed; settings: 353.15 K; 101.33 kPa; Liquid; Chromatography; x1 = 0
Listed here are compounds together with their documented activity coefficient.

[
  {
    "compound": "CCC(C)=O [butanone] + CCn1cc[n+](C)c1.CO[PH](=O)[O-]",
    "activity coefficient": 2.56
  },
  {
    "compound": "c1ccncc1 [pyridine] + CCn1cc[n+](C)c1.CO[PH](=O)[O-]",
    "activity coefficient": 1.95
  },
  {
    "compound": "CC(C)O [propan-2-ol] + CCn1cc[n+](C)c1.CO[PH](=O)[O-]",
    "activity coefficient": 0.294
  },
  {
    "compound": "c1ccsc1 [thiophene] + CCn1cc[n+](C)c1.CO[PH](=O)[O-]",
    "activity coefficient": 2.5
  },
  {
    "compound": "CCCCCCCCCCCCC [tridecane] + CCn1cc[n+](C)c1.CO[PH](=O)[O-]",
    "activity coefficient": 1850
  },
  {
    "compound": "CCOCC [diethyl ether] + CCn1cc[n+](C)c1.CO[PH](=O)[O-]",
    "activity coefficient": 3.5
  },
  {
    "compound": "Cc1ccccc1C [1,2-dimethylbenzene] + CCn1cc[n+](C)c1.CO[PH](=O)[O-]",
    "activity coefficient": 16.2
  },
  {
    "compound": "CCC(=O)CC [pentan-3-one] + CCn1cc[n+](C)c1.CO[PH](=O)[O-]",
    "activity coefficient": 6
  },
  {
    "compound": "CCCCCCCCCCC [undecane] + CCn1cc[n+](C)c1.CO[PH](=O)[O-]",
    "activity coefficient": 888
  },
  {
    "compound": "c1ccccc1 [benzene] + CCn1cc[n+](C)c1.CO[PH](=O)[O-]",
    "activity coefficient": 3.61
  },
  {
    "compound": "C1COCCO1 [1,4-dioxane] + CCn1cc[n+](C)c1.CO[PH](=O)[O-]",
    "activity coefficient": 3.87
  },
  {
    "compound": "CC(C)CO [2-methyl-1-propanol] + CCn1cc[n+](C)c1.CO[PH](=O)[O-]",
    "activity coefficient": 0.292
  },
  {
    "compound": "CCC[N+](=O)[O-] [1-nitropropane] + CCn1cc[n+](C)c1.CO[PH](=O)[O-]",
    "activity coefficient": 2.75
  },
  {
    "compound": "CC#N [acetonitrile] + CCn1cc[n+](C)c1.CO[PH](=O)[O-]",
    "activity coefficient": 1.19
  },
  {
    "compound": "C=O [methanal] + CCn1cc[n+](C)c1.CO[PH](=O)[O-]",
    "activity coefficient": 0.115
  },
  {
    "compound": "CO [methanol] + CCn1cc[n+](C)c1.CO[PH](=O)[O-]",
    "activity coefficient": 0.078
  },
  {
    "compound": "CCCCCCCCCCCCCC [tetradecane] + CCn1cc[n+](C)c1.CO[PH](=O)[O-]",
    "activity coefficient": 2610
  },
  {
    "compound": "Cc1ccccc1 [toluene] + CCn1cc[n+](C)c1.CO[PH](=O)[O-]",
    "activity coefficient": 6.82
  },
  {
    "compound": "CCc1ccccc1 [ethylbenzene] + CCn1cc[n+](C)c1.CO[PH](=O)[O-]",
    "activity coefficient": 11.7
  }
]
